target: human FAK (Homo sapiens); construct: The complete cDNA of human FAK; made in house; host or cells: baculovirus expression system (vector pFastBac HTc); test: FAK autophosphorylation inhibition, time resolved fluorescence (HTRF) assay; format: biochemical; conditions: 10 μM (values without asterisk); read-out: FAK % inhib at 10 μM
Sequence (Q05397 whole entry): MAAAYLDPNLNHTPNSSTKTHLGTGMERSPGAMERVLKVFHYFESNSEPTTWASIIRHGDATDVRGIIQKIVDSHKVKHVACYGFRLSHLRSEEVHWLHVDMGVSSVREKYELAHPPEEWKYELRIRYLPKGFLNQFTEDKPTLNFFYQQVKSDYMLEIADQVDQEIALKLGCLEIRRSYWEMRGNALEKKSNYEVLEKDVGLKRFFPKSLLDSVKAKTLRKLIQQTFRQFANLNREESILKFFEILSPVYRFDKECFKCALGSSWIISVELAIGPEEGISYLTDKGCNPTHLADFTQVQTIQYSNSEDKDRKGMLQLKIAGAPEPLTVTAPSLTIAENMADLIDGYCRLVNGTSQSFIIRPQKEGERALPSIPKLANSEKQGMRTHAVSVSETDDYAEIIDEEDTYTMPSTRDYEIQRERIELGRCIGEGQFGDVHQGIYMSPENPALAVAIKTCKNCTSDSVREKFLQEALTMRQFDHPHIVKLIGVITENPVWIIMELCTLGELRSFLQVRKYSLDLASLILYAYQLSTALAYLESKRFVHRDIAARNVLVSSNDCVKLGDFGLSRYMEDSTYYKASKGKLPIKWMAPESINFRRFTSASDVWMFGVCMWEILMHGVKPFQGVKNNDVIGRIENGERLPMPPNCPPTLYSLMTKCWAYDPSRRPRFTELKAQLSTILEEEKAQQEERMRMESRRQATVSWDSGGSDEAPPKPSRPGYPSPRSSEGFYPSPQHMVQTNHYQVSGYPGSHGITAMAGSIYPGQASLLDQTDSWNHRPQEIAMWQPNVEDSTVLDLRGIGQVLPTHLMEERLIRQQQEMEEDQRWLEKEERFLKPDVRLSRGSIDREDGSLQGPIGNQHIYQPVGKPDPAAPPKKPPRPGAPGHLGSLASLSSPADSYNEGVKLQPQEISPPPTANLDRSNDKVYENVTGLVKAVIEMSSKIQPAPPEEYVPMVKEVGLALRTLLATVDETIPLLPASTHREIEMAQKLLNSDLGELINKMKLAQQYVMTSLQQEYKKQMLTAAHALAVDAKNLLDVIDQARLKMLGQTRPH
Assign satisfied to entries whose inhibition at 10 µM meets or exceeds 70%; assign not satisfied to the rest.

Determine whether this molecule has inhibition at 10 µM no lower than 70%: Nc1cccc(S(=O)(=O)Nc2ccc3[nH]nc(-c4ccccc4)c3c2)c1 [Example 98]
not satisfied

Determine whether this molecule has inhibition at 10 µM no lower than 70%: CCOc1ccc(-c2n[nH]c3ccc(NS(=O)(=O)c4ccccc4S(C)(=O)=O)cc23)cc1 [Example 190]
satisfied

Determine whether this molecule has inhibition at 10 µM no lower than 70%: O=S(=O)(Nc1ccc2[nH]nc(-c3ccc(O)cc3)c2c1)c1ccccc1 [Example 34]
satisfied

Determine whether this molecule has inhibition at 10 µM no lower than 70%: CC(=O)Nc1ccccc1-c1n[nH]c2ccc(NS(=O)(=O)c3ccccc3S(C)(=O)=O)cc12 [Example 48]
not satisfied

Determine whether this molecule has inhibition at 10 µM no lower than 70%: CS(=O)(=O)c1ccccc1S(=O)(=O)Nc1ccc2[nH]nc(-c3ccccc3F)c2c1 [Example 188]
satisfied

Determine whether this molecule has inhibition at 10 µM no lower than 70%: C=Cc1ccc(-c2n[nH]c3ccc(NS(=O)(=O)c4ccccc4S(C)(=O)=O)cc23)cc1 [Example 185]
satisfied

Taken from patent US6858638B2.
